target: formaldehyde dehydrogenase (FDH) (Pseudomonas putida); construct: purchased Sigma-Aldrich; test: FDH coupling enzyme counterscreen; format: biochemical; settings: IC50 values in μM, FDH, Figure 2; 0.025 U/mL FDH, 10 µM formaldehyde
Sequence (P46154 whole entry): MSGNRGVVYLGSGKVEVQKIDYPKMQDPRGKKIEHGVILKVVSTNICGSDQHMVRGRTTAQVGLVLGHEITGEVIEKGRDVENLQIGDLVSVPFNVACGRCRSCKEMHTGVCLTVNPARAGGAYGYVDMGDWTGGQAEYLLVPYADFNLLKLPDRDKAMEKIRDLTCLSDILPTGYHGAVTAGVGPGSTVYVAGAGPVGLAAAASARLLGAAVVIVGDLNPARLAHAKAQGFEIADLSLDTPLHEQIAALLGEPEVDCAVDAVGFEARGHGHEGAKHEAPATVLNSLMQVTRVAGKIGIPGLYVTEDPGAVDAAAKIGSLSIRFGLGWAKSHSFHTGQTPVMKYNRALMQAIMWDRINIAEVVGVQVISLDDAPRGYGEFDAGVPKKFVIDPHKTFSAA
quantity-kind: IC50

The reported IC50 of the compound O=C(Cc1ccccc1)N1CCN(Cc2ccccn2)CC1 was > 57 µM

---

Molecular target: JMJD2E (Homo sapiens, UniProt B2RXH2)
Sequence (B2RXH2 1-337): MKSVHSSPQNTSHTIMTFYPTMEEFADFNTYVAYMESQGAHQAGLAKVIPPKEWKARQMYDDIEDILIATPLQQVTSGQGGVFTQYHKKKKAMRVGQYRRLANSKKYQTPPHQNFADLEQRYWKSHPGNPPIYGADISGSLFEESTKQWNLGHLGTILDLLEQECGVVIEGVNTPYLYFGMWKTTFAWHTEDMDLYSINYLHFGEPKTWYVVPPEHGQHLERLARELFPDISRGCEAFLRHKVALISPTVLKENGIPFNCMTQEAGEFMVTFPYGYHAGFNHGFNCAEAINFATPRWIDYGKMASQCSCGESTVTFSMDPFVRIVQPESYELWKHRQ
Assay: JMJD2E FDH-coupled assay under low and high iron conditions (iron chelation profile)
Format: biochemical
Design: The catalytic domain of human JMJD2E (residues 1–337); His6 (N); made in house; host or cells: E. coli
Details: Table S1; high iron, head says 20 µM FAS; unit not in table, from Figure 2; read-out: qHTS Data: jmjd2e fas20um IC50
pIC50: −log10 of the molar value.
We use 5 as the dividing line for pIC50: on or above the line is Met, below is Not met.

Solved entries (count: 3):
| molecule | assigned-category |
| --- | --- |
| CCCCc1ccc(C(=O)O)nc1 | Met |
| O=c1nc(N/N=C/c2ccccn2)cn[nH]1 | Not met |
| Oc1ccccc1O | Not met |

Challenge: Hi team, for COc1cccc(O)c1O , is the recorded pIC50 at or above 5?
Response given: Not met

Challenge: Has O=C(OCC1OC(OC(=O)c2cc(O)c(O)c(OC(=O)c3cc(O)c(O)c(O)c3)c2)[C@@H](OC(=O)c2cc(O)c(O)c(OC(=O)c3cc(O)c(O)c(O)c3)c2)C(OC(=O)c2cc(O)c(O)c(OC(=O)c3cc(O)c(O)c(O)c3)c2)C1OC(=O)c1cc(O)c(O)c(OC(=O)c2cc(O)c(O)c(O)c2)c1)c1cc(O)c(O)c(OC(=O)c2cc(O)c(O)c(O)c2)c1 (some centres unmarked) a recorded pIC50 greater than or equal to 5?
Response given: Not met

Challenge: Given the entry O=C(CCc1ccccc1)NCC(=O)N/N=C/c1ccc(O)cc1O , answer whether its pIC50 meets or surpasses 5.
Response given: Met

Challenge: Check the entry CN(C)c1ccnc(C(=O)O)c1 : does pIC50 equal or exceed 5?
Response given: Not met

---

target: JMJD2E (Homo sapiens); experiment: JMJD2E FDH-coupled assay under low and high iron conditions (iron chelation profile); type: biochemical; parameters: The catalytic domain of human JMJD2E (residues 1–337); His6 (N); made in house; host or cells: E. coli; settings: Table S1; low iron 2.5 µM FAS; unit not in table, from Figure 2; read-out: qHTS Data: jmjd2e fas2.5um IC50
quantity-kind: IC50 (µM)
Express it in µM; write the number only.

Form: molecule = C[C@H](N)[C@H](O)c1ccc(O)c(O)c1 ; IC50 = 3.98

Lookup result for CN(C)S(=O)(=O)c1cccc(-n2sc3ccccc3c2=O)c1 ; measured IC50: 4.47

IC50 measured on Oc1ccc(CN2CCCc3ccccc32)c2cccnc12 = 1.26

For this molecule ( CCN(CC)c1ccc(N=Cc2c(C)[nH]c3ccccc23)cc1 ), measured IC50 is 12.6

Lookup result for CCOc1c(Cl)cc(CNc2ccc(N3CCCC3)cc2)cc1OC ; measured IC50: 3.98

---

Measured pIC50 of individual entries
biological target: JMJD2E (KDM4E) (Homo sapiens, UniProt B2RXH2); construct: The catalytic domain of human JMJD2E (residues 1–337); His6 (N); made in house; host or cells: E. coli; assay: qHTS fluorescence FDH-coupled JMJD2E demethylase assay; type: biochemical; conditions: Table S1; unit not in table, from Figure 2; read-out: qHTS Data: jmjd2e IC50
Just the number, please; pIC50 means minus log10 of the concentration in mol/L.

Guide cases for pIC50, answers given:
| molecule | quantity-kind | result |
| --- | --- | --- |
| CN[C@@H](C)[C@H](O)c1ccccc1.CN[C@@H](C)[C@H](O)c1ccccc1.O=S(=O)(O)O | pIC50 | 5.45 |
| COc1cccc(/C=N/NC(=O)CNC(=O)CCc2ccccc2)c1O | pIC50 | 5.40 |
| CN(N=O)c1ccc(O)c(O)c1 | pIC50 | 5.00 |
| CC(C)c1ccc(N2C(=O)CC(Sc3ncn[nH]3)C2=O)cc1 (stereo not drawn) | pIC50 | 5.80 |
| Cc1cccc(OCC(=O)NCC(=O)N/N=C/c2ccc(O)cc2O)c1 | pIC50 | 5.50 |

For C=CCc1c(C)nc(C)nc1N/N=C/c1ccccc1O on JMJD2E (KDM4E) (Homo sapiens, UniProt B2RXH2), measured pIC50 was 5.50

Lab note: molecule C[C@@](Cc1ccc(O)c(O)c1)(NN)C(=O)O tested on JMJD2E (KDM4E) (Homo sapiens, UniProt B2RXH2); recorded pIC50 was 5.45

pIC50 on JMJD2E (KDM4E) (Homo sapiens, UniProt B2RXH2) for O=c1cnnc(N/N=C/c2ccccn2)[nH]1 is 5.45

Observed pIC50 on JMJD2E (KDM4E) (Homo sapiens, UniProt B2RXH2), entry CN1CC[C@]2(C)c3cc(O)ccc3N(C)[C@@H]12 , equals 5.65

---

target: formaldehyde dehydrogenase (FDH) (Pseudomonas putida); construct: purchased Sigma-Aldrich; assay: FDH coupling enzyme counterscreen; type: biochemical; details: Table S1; FDH counterscreen
quantity-kind: qHTS Data: jmjd2e fdh CurveClass

| structure-as-smiles | result |
| --- | --- |
| COc1cccc(CN2CCN(C(=O)c3ccc(-c4ccccc4)cc3)CC2)c1OC.O=C(O)C(=O)O | Inactive |
| Cc1cccc(NCc2ccc(O)c3ncccc23)c1 | Inactive |
| C=CCc1c(C)nc(C)nc1N/N=C/c1ccccc1O | Inactive |

---

molecular target: formaldehyde dehydrogenase (FDH) (Pseudomonas putida); construct: purchased Sigma-Aldrich; experiment: FDH coupling enzyme counterscreen; format: biochemical; settings: Table S1; FDH counterscreen
quantity-kind: qHTS Data: jmjd2e fdh CurveClass

Some molecules with recorded qHTS Data: jmjd2e fdh CurveClass:
| molecule | result |
| --- | --- |
| Cl.NC(CO)C(=O)NNCc1ccc(O)c(O)c1O (centres unmarked) [compound 855739] | Inactive |
| COC(=O)CCC(=O)OC1(C)C(=O)C=C2C=C(C3CC3)N(CCc3ccccn3)C=C2C1=O (centres unmarked) [compound 26725368] | Inactive |
| CN(C)c1ccnc(C(=O)O)c1 [compound 24815512] | Inactive |
| Cc1ccc(SCCCCN2CCNCC2)cc1.O=C(O)C(=O)O [compound 17504558] | Inactive |

# value of qHTS Data: jmjd2e fdh CurveClass, formaldehyde dehydrogenase (FDH) (Pseudomonas putida), item CCc1ccc2c(O)c3c(cc2c1C(=O)OC)C(=O)c1c(O)ccc(O)c1C3=O [compound 26749155] = Poor quality curve

Entry CN(C)C1C(=O)C(C(N)=O)=C(O)[C@@]2(O)C(=O)C3=C(O)c4c(O)cccc4[C@@](C)(O)C3[C@H](O)C12 (some centres unmarked) [compound 50105558] under formaldehyde dehydrogenase (FDH) (Pseudomonas putida) had qHTS Data: jmjd2e fdh CurveClass of Poor quality curve

Case CCOc1cccc(C(=O)c2ccc(O)c(O)c2O)c1 [compound 26749554] , formaldehyde dehydrogenase (FDH) (Pseudomonas putida), qHTS Data: jmjd2e fdh CurveClass recorded as Inactive

Result for COc1cc(C2C3=C(CCCC3=O)Nc3c2c(C)nn3-c2cccc(C)c2)cc(OC)c1O (centres unmarked) [compound 26724424] , tested on formaldehyde dehydrogenase (FDH) (Pseudomonas putida), qHTS Data: jmjd2e fdh CurveClass: Inactive

---

Target: JMJD2E (KDM4E) (Homo sapiens)
Construct: The catalytic domain of human JMJD2E (residues 1–337); His6 (N); made in house; host or cells: E. coli
Sequence (B2RXH2 1-337): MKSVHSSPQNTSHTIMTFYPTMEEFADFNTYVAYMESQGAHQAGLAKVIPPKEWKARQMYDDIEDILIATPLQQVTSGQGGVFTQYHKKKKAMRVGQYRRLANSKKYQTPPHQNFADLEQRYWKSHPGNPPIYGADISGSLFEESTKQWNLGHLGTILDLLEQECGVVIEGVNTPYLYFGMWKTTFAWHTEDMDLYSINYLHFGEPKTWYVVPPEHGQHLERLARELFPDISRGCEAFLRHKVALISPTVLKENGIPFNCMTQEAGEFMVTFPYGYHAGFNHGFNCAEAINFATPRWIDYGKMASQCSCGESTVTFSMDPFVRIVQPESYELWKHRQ
Experiment: qHTS fluorescence FDH-coupled JMJD2E demethylase assay
Type: biochemical
Conditions: Table S1; unit not in table, from Figure 2; read-out: qHTS Data: jmjd2e IC50
// reported pIC50 for each item listed
In plain terms, pIC50 is the concentration in mol/L turned into minus its base-10 logarithm.

These solved cases illustrate the format of a correct answer.
| compound | test-target | pIC50 |
| --- | --- | --- |
| Cl.NCCc1cc(O)c(O)cc1O | JMJD2E (KDM4E) (Homo sapiens) | 5.20 |
| Cc1cc2c(C(C)C)c(O)c(O)c(C=O)c2c(O)c1-c1c(C)cc2c(C(C)C)c(O)c(O)c(C=O)c2c1O | JMJD2E (KDM4E) (Homo sapiens) | 5.10 |
| Cl.Nc1ccn([C@@H]2O[C@H](CO)[C@@H](O)[C@@H]2O)c(=O)n1 | JMJD2E (KDM4E) (Homo sapiens) | 6.05 |

Value (pIC50, JMJD2E (KDM4E) (Homo sapiens)) for record C=C1c2cccc(O)c2C(O)=C2C(=O)[C@]3(O)C(O)=C(C(N)=O)C(=O)C(N(C)C)C3C(O)C12.Cl (stereo partly shown) = 5.05

Here O=C(OCC1O[C@@H](OC(=O)c2cc(O)c(O)c(O)c2)[C@@H](OC(=O)c2cc(O)c(O)c(O)c2)[C@@H](OC(=O)c2cc(O)c(O)c(O)c2)[C@@H]1OC(=O)c1cc(O)c(O)c(O)c1)c1cc(O)c(O)c(O)c1 (stereo partly shown) was tested on JMJD2E (KDM4E) (Homo sapiens), and its pIC50 came to 5.50

Let me check: N[C@H](Cc1ccc(O)c(O)c1)C(=O)O , system JMJD2E (KDM4E) (Homo sapiens), measured pIC50 is 4.75

The measured pIC50 that Cl.NC(CO)C(=O)NNCc1ccc(O)c(O)c1O (stereo not shown) showed for JMJD2E (KDM4E) (Homo sapiens) is 5.65
